procedure-summary: Pharmacokinetic parameters (t1/2, Cmax, tmax) identified for the drug panel
particulars: human, in vivo; Table 1, twice the half-life, main determinant for in vitro incubation time
endpoint-name: twice the half-life (2 × t1/2) (min)

[
  {
    "molecule-smiles": "Nc1nc2[nH]cc(CCc3ccc(C(=O)N[C@@H](CCC(=O)O)C(=O)O)cc3)c2c(=O)[nH]1",
    "unit-symbol": "min",
    "twice the half-life (2 × t1/2)": 528
  },
  {
    "molecule-smiles": "CC(=O)O[C@@]12CO[C@@H]1C[C@H](O)[C@@]1(C)C(=O)[C@H](O)C3=C(C)[C@@H](OC(=O)[C@H](O)[C@@H](NC(=O)OC(C)(C)C)c4ccccc4)C[C@@](O)([C@@H](OC(=O)c4ccccc4)[C@H]21)C3(C)C",
    "unit-symbol": "min",
    "twice the half-life (2 × t1/2)": 4920
  },
  {
    "molecule-smiles": "CC(=O)Nc1cccc(-n2c(=O)n(C3CC3)c(=O)c3c(Nc4ccc(I)cc4F)n(C)c(=O)c(C)c32)c1",
    "unit-symbol": "min",
    "twice the half-life (2 × t1/2)": 576
  },
  {
    "molecule-smiles": "O=C(c1cc(Cc2n[nH]c(=O)c3ccccc23)ccc1F)N1CCN(C(=O)C2CC2)CC1",
    "unit-symbol": "min",
    "twice the half-life (2 × t1/2)": 1430
  },
  {
    "molecule-smiles": "O=c1[nH]cc(F)c(=O)[nH]1",
    "unit-symbol": "min",
    "twice the half-life (2 × t1/2)": 36
  }
]

(a) Nc1ccn([C@@H]2O[C@H](CO)[C@@H](O)C2(F)F)c(=O)n1
(b) C#Cc1cccc(Nc2ncnc3cc(OCCOC)c(OCCOC)cc23)c1
// compare measured twice the half-life (2 × t1/2), left a , right b , return larger The response must carry the label of the picked entry.
b
(b: 2930 min, a: 27.6 min)
